target: Recombinant human FcγRIIIa-V158 (human, UniProt P08637 17-208); assay: SPR; +kif
Sequence (P08637 17-208 F176V): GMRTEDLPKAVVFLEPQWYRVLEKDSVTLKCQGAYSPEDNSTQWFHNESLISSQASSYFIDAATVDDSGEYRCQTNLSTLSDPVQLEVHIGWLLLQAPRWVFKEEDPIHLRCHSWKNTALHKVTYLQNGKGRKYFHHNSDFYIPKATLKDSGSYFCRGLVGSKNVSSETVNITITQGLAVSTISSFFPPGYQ
value.kind: pKd
Numbers only, as −log10 of the molar value.

The recorded pKd for entry human IgG1 antibody specific for protein 4, S239D/I332E + T256D/T307Q, +Kif (antibody) ASTKGPSVFPLAPSSKSTSGGTAALGCLVKDYFPEPVTVSWNSGALTSGVHTFPAVLQSSGLYSLSSVVTVPSSSLGTQTYICNVNHKPSNTKVDKKVEPKSCDKTHTCPPCPAPELLGGPDVFLFPPKPKDTLMISRDPEVTCVVVDVSHEDPEVKFNWYVDGVEVHNAKTKPREEQYNSTYRVVSVLQVLHQDWLNGKEYKCKVSNKALPAPEEKTISKAKGQPREPQVYTLPPSRDELTKNQVSLTCLVKGFYPSDIAVEWESNGQPENNYKTTPPVLDSDGSFFLYSKLTVDKSRWQQGNVFSCSVMHEALHNHYTQKSLSLSPGK equals 8.12
